Biological target: 17-beta-hydroxysteroid dehydrogenase type 1 (Homo sapiens, UniProt P14061)
Test: Displacement of [3H]E1 from 17beta-HSD1 in human T47D cells after 10 mins by fluid scintillation counting
Type: cell-based
Property: IC50 (nM)

INSERT INTO assay_data (compound_structure, quantity_unit, measured_result) VALUES
  ('Oc1cccc(-c2ccc3cc(O)ccc3c2)c1', 'nM', 229);

[P] Oc1cccc(-c2ccc3c(-c4ccccc4)c(O)ccc3c2)c1
[Q] Oc1cccc(-c2ccc3c(-c4cccnc4)c(O)ccc3c2)c1
Please tell me which of the two, P or Q , has the higher reported IC50 value. // respond with label for picked entry P

[a] CS(=O)(=O)Nc1cccc(-c2c(O)ccc3cc(-c4cccc(O)c4)ccc23)c1
[b] Oc1cccc(-c2ccc3c(-c4cccc(O)c4)c(O)ccc3c2)c1
Please choose the item with the lower IC50 value from this pair: a and b // respond with label for picked entry a
(a: 71 nM, b: 115 nM)

---

Molecular target: 17-beta-hydroxysteroid dehydrogenase type 1 (Homo sapiens) (UniProt P14061)
Sequence (P14061 whole entry): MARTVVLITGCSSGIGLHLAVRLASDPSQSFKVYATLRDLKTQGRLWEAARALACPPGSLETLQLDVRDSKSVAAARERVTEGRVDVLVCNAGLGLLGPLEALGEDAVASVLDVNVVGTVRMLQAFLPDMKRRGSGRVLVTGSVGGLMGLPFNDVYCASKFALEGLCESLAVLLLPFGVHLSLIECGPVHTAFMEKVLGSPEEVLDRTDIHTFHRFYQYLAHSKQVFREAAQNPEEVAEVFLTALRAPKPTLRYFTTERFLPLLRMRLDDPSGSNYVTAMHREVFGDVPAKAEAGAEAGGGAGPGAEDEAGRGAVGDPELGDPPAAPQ
Experiment: Inhibition of [3H]E1 binding to human placental 17beta-HSD1 at 100 nM after 10 mins by fluid scintillation counting
Property: inhibition (%)

INSERT INTO measurements (compound_structure, property, quantity_unit, measured_result) VALUES
  ('COc1ncc(-c2c(O)ccc3cc(-c4cccc(O)c4)ccc23)c(OC)n1', 'inhibition', '%', 31);

[a] Oc1cccc(-c2ccc3c(-c4ccc5[nH]ccc5c4)c(O)ccc3c2)c1
[b] Cn1cc(-c2c(O)ccc3cc(-c4cccc(O)c4)ccc23)cn1
Please tell me which of the two, a or b , has the higher reported inhibition value. // respond with label for picked entry a

---

Biological target: Estrogen receptor beta (Homo sapiens)
Assay: Displacement of [3H]E2 from human recombinant ERbeta by liquid scintillation counting relative to estradiol
Property: RBA (%)

INSERT INTO assay_data (compound_structure, tested_system, measured_result) VALUES
  ('Oc1cccc(-c2ccc3c(-c4ccccc4)c(O)ccc3c2)c1', 'Estrogen receptor beta (Homo sapiens)', 0.01),
  ('Oc1cccc(-c2ccc3c(-c4ccoc4)c(O)ccc3c2)c1', 'Estrogen receptor beta (Homo sapiens)', 0.01);

---

Recorded below: IC50, system Cytochrome P450 2C19 (Homo sapiens).
Property: IC50 (nM)

INSERT INTO assay_data (compound_structure, tested_system, property, measured_result) VALUES
  ('Nc1cccc(-c2c(O)ccc3cc(-c4cccc(O)c4)ccc23)c1', 'Cytochrome P450 2C19 (Homo sapiens)', 'IC50', 680);

[1] Oc1cccc(-c2ccc3c(-c4cccc(O)c4)c(O)ccc3c2)c1
[2] Oc1cccc(-c2ccc3c(-c4ccccc4)c(O)ccc3c2)c1
Please tell me which of the two, 1 or 2 , has the higher reported IC50 value. // respond with label for picked entry 1
(1: 6030 nM, 2: 1410 nM)

---

Target sequence: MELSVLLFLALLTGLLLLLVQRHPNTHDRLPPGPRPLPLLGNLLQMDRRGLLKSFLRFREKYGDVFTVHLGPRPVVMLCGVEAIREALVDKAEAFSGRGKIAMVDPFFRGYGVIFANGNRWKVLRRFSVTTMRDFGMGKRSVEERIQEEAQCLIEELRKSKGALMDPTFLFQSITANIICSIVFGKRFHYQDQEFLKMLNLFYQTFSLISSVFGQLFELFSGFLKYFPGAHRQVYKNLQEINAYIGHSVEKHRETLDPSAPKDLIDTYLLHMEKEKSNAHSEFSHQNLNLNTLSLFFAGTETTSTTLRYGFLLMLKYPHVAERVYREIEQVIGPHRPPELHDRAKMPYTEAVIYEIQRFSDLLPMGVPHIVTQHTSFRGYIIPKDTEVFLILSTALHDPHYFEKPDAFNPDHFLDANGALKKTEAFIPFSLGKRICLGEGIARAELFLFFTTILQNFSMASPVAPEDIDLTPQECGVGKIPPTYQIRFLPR
Property: pIC50
Field pIC50 (float): negative decimal logarithm of the concentration in molar.

So what's the measured pIC50 for this one? Oc1cccc(-c2ccc3c(-c4cccc(O)c4)c(O)ccc3c2)c1 4.93
